target system: T1, CLL-1 on U937 cells (human, UniProt Q5QGZ9 1-265)
T1 construct: whole, on cells; also called CLEC12A; Clec12A
T1 sequence: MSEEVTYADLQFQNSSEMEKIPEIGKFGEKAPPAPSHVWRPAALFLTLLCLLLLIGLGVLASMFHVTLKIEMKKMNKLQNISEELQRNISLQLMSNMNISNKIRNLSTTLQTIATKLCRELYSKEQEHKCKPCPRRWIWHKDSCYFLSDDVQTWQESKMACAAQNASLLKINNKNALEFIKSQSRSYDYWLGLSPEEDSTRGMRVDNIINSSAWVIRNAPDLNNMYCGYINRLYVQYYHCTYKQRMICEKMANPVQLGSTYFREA
measurement description: flow cytometry on U937 cells, VHH at 3 ug/ml, detected with a-His-PE; a-His-PE alone 1.1% and 5,576.5, unstained 0.6% and 5,793.5
Give % of This Plot (R3 PE+) for every item shown.
Please respond with the number in % and leave the unit unwritten.

Write down % of This Plot (R3 PE+) measured for item VHH clone 2F5 (VHH, Includes myc and His tags) VHH: QVQLQQSGGGLAQTGGSLILSCAASGSIFAINEINLMGWYRQAPGKQRELVAACASDGNTYYADSVKGRFTISRDNAEKTVYLQMNNLKPDDTAVYYCDANSRGNYYSGQGTQVTVSS
95.5

Note % of This Plot (R3 PE+) for the binder shown: VHH clone 1B5 (VHH, Includes myc and His tags) VHH: QVQLQESGGGLVQAGGSLRLSCVVSGATSNVNAMGWYRQAPGKERELVAAISSGGSTSYRDSVKGRFTISRDNAKNTLYLQMNSLKPEDTAMYYCAAQDWATEGYEYDYWGQGTLVTVSS
2.3

Tell me % of This Plot (R3 PE+) reported for VHH clone 1G6 (VHH, includes myc and His tags; also called 2G11; 2H2) VHH: QVQLQQSGGGLVQAGGSLRLSCAASGSIFAINEINLMGWYRQAPGKQRELVAACASDGNTYYADSVKGRFTISRDNAEKTVYLQMNNLKPDDTAVYYCDANSRGNYYSGQGTQVTVSS
95.6

Tell me % of This Plot (R3 PE+) reported for VHH clone 1H1 (VHH, includes myc and His tags; also called 2F4) VHH: QVQLQESGGGLVQPGGSLRLSCAASGFTFNSYAMTWVRQAPGKGLEWVSDINSGGGSTNYADSVKGRFTISRDNAKNTLYLQMNSLKPEDTAVYYCATELRGSDYYRGPIREYAYWGQGTLVTVSS
88.6

Tell me its % of This Plot (R3 PE+) given VHH clone 2F3 (VHH, Includes myc and His tags) VHH: QVQLQAFGGGLVQPGGSLRLSCVVSGTMFSGKDVNWLRQAPGKHVEVVATVSSDGGTDYADFVKGRFTISRDDAKNTVNLQMNSLEPEDTANYMCHFLWGRHYWGQGTQVTVSS as the entry.
12.4

Write down % of This Plot (R3 PE+) measured for item VHH clone 2H3 (VHH, Includes myc and His tags; also called 2H3 VHH-Myc-His; VHH 2H3) VHH: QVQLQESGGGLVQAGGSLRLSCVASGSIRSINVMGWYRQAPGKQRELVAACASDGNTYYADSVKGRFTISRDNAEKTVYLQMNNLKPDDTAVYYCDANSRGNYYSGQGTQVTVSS
93.8
